Cited source for all entries: patent US20260184794A1

system: T1, α11β1 on human pulmonary myofibroblasts (human, UniProt Q9UKX5 23-1188; P05556 21-798)
T1 construct: whole, on cells; The cells are not transfected; also called HPF/MF
T1 sequence (Q9UKX5 23-1188, chain 1 of 2): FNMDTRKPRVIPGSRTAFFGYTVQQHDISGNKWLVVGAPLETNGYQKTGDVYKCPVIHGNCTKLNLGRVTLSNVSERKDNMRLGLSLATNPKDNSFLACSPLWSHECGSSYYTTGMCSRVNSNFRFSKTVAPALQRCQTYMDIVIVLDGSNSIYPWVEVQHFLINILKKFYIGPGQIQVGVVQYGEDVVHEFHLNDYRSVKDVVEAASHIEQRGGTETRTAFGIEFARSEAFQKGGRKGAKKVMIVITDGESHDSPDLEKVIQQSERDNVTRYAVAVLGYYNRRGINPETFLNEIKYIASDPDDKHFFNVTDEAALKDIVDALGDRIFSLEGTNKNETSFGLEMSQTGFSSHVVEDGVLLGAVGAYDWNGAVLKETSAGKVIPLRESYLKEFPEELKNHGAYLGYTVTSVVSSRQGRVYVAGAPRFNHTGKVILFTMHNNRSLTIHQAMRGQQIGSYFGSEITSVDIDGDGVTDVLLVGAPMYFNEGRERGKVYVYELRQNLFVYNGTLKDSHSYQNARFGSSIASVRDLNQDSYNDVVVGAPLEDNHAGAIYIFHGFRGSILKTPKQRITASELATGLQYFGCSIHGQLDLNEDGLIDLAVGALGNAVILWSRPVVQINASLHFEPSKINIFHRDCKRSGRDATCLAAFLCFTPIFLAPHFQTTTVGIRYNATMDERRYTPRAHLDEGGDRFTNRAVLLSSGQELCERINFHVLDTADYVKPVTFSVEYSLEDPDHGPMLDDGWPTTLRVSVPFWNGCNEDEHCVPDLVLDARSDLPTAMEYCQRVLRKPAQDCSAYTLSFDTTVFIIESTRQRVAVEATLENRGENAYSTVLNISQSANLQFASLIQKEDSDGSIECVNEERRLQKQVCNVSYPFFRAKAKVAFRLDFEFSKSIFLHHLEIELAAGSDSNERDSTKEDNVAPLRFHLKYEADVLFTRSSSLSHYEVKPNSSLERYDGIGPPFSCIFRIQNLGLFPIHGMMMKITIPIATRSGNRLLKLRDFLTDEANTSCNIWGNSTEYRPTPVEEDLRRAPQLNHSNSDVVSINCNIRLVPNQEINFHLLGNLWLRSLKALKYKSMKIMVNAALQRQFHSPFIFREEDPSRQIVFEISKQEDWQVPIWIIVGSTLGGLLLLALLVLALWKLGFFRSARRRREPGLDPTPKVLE
T1 sequence (P05556 21-798, chain 2 of 2): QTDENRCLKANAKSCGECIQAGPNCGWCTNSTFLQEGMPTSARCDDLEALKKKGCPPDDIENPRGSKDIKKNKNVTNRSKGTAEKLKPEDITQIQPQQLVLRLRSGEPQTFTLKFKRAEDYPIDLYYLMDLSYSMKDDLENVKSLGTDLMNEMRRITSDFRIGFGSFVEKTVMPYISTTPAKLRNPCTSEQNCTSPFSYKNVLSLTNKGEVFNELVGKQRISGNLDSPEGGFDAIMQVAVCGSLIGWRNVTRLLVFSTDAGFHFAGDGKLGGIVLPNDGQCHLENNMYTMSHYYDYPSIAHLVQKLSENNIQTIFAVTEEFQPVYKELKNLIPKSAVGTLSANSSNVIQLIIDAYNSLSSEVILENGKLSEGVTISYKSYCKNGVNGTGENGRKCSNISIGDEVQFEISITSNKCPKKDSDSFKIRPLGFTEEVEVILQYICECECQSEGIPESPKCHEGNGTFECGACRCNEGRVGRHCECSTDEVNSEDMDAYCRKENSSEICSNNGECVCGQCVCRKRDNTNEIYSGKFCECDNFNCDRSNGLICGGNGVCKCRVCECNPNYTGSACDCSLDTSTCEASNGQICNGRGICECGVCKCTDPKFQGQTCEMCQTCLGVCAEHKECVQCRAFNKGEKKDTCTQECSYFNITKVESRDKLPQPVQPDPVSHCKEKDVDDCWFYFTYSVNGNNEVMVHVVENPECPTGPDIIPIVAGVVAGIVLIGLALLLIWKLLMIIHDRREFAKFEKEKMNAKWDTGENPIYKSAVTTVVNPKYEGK
testMethodNotes: flow cytometry on human pulmonary myofibroblasts (title: Myofibroblast Binding); MFI against Log [µg/ml]
measure: EC50 (read off the curve)

binder	reportedValue
1994-01-C7 variant 58 (antibody, V domains shown) VH: QVQLVQSGAEVKKPGASVKVSCKASGYTFTSYGISWVRQAPGQGLEWMGWISAYNANVNYAQKLQGRVTMTTDTSTSTAYMELRSLRSDDTAAYYCARVTGITGTTIGPWGQGTMVTVSS VL: DIQMTQSPSSLSASVGDRVTITCRASQSISSYLNWYQQKPGKAPKLLIYDASSLESGVPSRFSGSGSGTEFTLTISSLQPDDFAVYYCQQYNNWPQTFGQGTKVEIK	~0.4 µg/mL
1994-01-C7 (antibody, V domains shown, Fully human, from phage display (scFv converted to IgG); also called 1994-01-C7 (#9); 1994-01-C07) VH: QVQLVQSGAEVKKPGASVKVSCKASGYTFTSYGISWVRQAPGQGLEWMGWISAYNGNTNYAQKLQGRVTMTTDTSTSTAYMELRSLRSDDTAAYYCARVTGITGTTIDPWGQGTMVTVSS VL: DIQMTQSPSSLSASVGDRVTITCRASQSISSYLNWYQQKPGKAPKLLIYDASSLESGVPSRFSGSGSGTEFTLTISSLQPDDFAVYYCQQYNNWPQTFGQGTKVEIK	~0.5 µg/mL
1994-01-C7 variant 54 (antibody, V domains shown) VH: QVQLVQSGAEVKKPGASVKVSCKASGYTFTSYGISWVRQAPGQGLEWMGWISAYNANTNYAQKLQGRVTMTTDTSTSTAYMELRSLRSDDTAAYYCARVTGITGTTIGPWGQGTMVTVSS VL: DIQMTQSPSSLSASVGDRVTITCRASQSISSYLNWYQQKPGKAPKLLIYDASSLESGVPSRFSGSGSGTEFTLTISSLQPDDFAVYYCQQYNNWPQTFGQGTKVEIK	~0.4 µg/mL
1994-01-C7 variant 60 (antibody, V domains shown) VH: QVQLVQSGAEVKKPGASVKVSCKASGYTFTSYGISWVRQAPGQGLEWMGWISAYNSNTNYAQKLQGRVTMTTDTSTSTAYMELRSLRSDDTAAYYCARVTGITGTTIGPWGQGTMVTVSS VL: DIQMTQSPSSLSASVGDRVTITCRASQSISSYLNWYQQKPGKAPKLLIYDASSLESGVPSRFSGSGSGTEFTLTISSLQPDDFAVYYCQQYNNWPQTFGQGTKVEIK	~0.6 µg/mL
